B1: minF1; a variant is named by its letters at N, in order (parent)
chain: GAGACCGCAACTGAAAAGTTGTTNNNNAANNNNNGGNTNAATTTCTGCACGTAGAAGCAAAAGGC

variants of: B1; assay: fraction ligated after 30 min (ligated reads / total reads); higher = more ligase activity; details: with F1*subA RNA substrate (template-directed ligation), 42 °C
I would appreciate it if you labelled entries fulfilled when fraction ligated is 0.005 or higher, otherwise not fulfilled.

Use the examples below as a reference point.
| Variant Key | Class Assignment |
| --- | --- |
| ACAGATATGTG | not fulfilled |
| ATCAATGGATG | not fulfilled |
| ATCGATGAGTG | not fulfilled |
| TCAGATGGAGT T23A G35T T38G A40T | not fulfilled |
| TCAGATGTGTG T23A | not fulfilled |

Reported fraction ligated reaches at least 0.005 for TCGATGGATGT T23A A40G ?
fulfilled

// next record ATCAAATGAGT A28G A40G
not fulfilled

Another variant to look at: CAGATGGTGTG
not fulfilled

What do we get for TCAGAGGAGTG T23A ?
not fulfilled

Now consider ATCAATGATGT .
not fulfilled

Reference for the values: the supplement of paper PMC6755084
